Molecular target: D4 dopamine receptor (Homo sapiens, UniProt P21917)
Sequence (P21917 whole entry): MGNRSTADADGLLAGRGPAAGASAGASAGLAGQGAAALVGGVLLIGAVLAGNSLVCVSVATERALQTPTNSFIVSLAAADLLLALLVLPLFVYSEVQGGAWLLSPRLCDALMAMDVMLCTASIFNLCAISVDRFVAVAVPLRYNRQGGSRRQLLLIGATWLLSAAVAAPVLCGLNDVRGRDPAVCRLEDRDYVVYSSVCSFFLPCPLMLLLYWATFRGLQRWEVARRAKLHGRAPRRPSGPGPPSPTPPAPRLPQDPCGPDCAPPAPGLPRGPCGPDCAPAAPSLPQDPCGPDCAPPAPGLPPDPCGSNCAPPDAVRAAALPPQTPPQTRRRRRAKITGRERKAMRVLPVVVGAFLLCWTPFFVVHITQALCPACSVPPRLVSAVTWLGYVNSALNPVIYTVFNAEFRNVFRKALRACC
Assay: In vitro binding (membrane preparation), human recombinant receptors, D4
parameter: Ki (µM)

# smiles structure, parameter, test result
rows = [
    ("CCCN1C[C@@H](c2ccc(N)nc2)OC[C@@H]1C", "Ki", 4.16),
]

----------
Biological target: human dopamine D2long receptor (Homo sapiens)
Sequence (P14416 whole entry): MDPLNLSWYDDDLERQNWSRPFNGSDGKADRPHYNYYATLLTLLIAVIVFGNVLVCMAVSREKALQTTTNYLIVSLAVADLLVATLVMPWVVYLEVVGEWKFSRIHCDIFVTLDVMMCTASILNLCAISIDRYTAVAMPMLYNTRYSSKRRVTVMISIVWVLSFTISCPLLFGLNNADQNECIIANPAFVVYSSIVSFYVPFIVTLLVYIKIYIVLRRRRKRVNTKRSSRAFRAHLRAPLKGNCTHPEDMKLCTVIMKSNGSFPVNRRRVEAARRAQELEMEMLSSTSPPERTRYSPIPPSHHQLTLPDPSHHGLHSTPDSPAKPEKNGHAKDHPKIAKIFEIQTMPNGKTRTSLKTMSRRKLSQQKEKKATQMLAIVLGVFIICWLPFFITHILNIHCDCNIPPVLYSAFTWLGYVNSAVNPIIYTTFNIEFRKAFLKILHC
Assay: Inhibition via dopamine D2 receptors of forskolin-stimulated adenylate cyclase activity (cAMP, GH4C1/hD2L cells)
parameter: EC50

# smiles structure, target entity, test result
measured = [
    ("CCCN1C[C@@H](c2ccc(N)nc2)OC[C@@H]1C", "human dopamine D2long receptor (Homo sapiens)", "> 10 µM"),
]

Source listed as patent US20090318451A1.
